Please respond with reported inhibition at 1 µM for every item in the list.
tested on: Marburg virus (MARV); experiment: organism not typed; type: cell-based; details: Vero, 72 h, read-out: Percent viral inhibition MARV
One number for each entry, in %.

See these solved cases before continuing.
>>> endpoint_value("NS(=O)(=O)CCCN1CCN(c2ncc(Oc3cc(CN4CCC(CC(=O)O)CC4)cc(-c4cc(Cl)cc(Cl)c4)n3)cn2)CC1 [Example 246]")
39.9
>>> endpoint_value("CS(=O)(=O)CCCN1CCN(c2cnc(Oc3cc(CN4CCC(CC(=O)O)CC4)cc(-c4cc(Cl)cc(Cl)c4)n3)cn2)CC1 [Example 354]")
45.2
>>> endpoint_value("CNC(=O)OCC1CCN(Cc2cc(Oc3ccc(N4CCN(CCC(=O)O)CC4)nc3)nc(-c3cc(Cl)cc(Cl)c3)c2)CC1 [Example 77]")
57.2
>>> endpoint_value("CC(=O)NCC1CCN(Cc2cc(Oc3ccc(N4C[C@H]5CC[C@@H](C4)N5CCC(=O)O)nc3)nc(-c3cc(Cl)cc(Cl)c3)c2)CC1 [Example 185]")
64.2
>>> endpoint_value("CC(=O)NCC1CCN(Cc2cc(Oc3ccc(N4CCN(CC(C)C(=O)O)CC4)nn3)nc(-c3cc(Cl)cc(Cl)c3)c2)CC1 (centres unmarked) [Example 363]")
2.8
>>> endpoint_value("COC(=O)NCC1CCN(Cc2cc(Oc3cnc(N4CCN(CCC(=O)O)[C@@H](C)C4)nc3)nc(-c3cc(Cl)cc(Cl)c3)c2)CC1 [Example 294]")
54.2
>>> endpoint_value("O=C(O)CC1CCN(Cc2cc(Oc3cnc(N4CC5CC(C4)N5)nc3)nc(-c3cc(Cl)cc(Cl)c3)c2)CC1 [Example 162]")
72.8
>>> endpoint_value("CN1CCN(c2ncc(Oc3cc(CN4CCC(OCC(=O)O)CC4)cc(-c4cc(Cl)cc(Cl)c4)n3)cn2)CC1 [Example 53]")
53.5

Parameter requested: inhibition at 1 µM. Apply to each item below.
1. CN1CCN(c2ncc(Oc3cc(CN4CCC(Cc5nnn[nH]5)CC4)cc(-c4cc(Cl)cc(Cl)c4)n3)cn2)CC1 [Example 72]
2. CCN1CCN(c2ncc(Oc3cc(CN4CCC(CC(=O)O)CC4)cc(-c4cc(Cl)cc(Cl)c4)n3)cn2)CC1 [Example 234]

Output line:
1: 55.8; 2: 49.1
